The entries below come with measured growth values attached.
- System: Klebsiella aerogenes DSM 30053
- protocol-text: growth (OD595) fold change vs plate DMSO controls (fold change (ratio)); higher = more growth
- test-parameters: incubation time: 27 h, anaerobic, 37 °C
Where a name gives a salt, the structure may show the parent alone.
Number only, please.

For orientation, consider the following solved cases.
COc1ccccc1OCC(O)CN1CCN(CC(=O)Nc2c(C)cccc2C)CC1 (centres undefined) [Ranolazine] (20 µM)
1.13
CN(CCCCCCCCCCN(C)C(=O)Oc1cccc([N+](C)(C)C)c1)C(=O)Oc1cccc([N+](C)(C)C)c1 [Demecarium bromide] (20 µM)
1.04
CN(C)C(=N)NC(=N)N [Metformin hydrochloride] (20 µM)
0.989

Quick one: growth for CC(C)NC[C@@H](O)COc1cccc2ccccc12 [(R) Propranolol hydrochloride] (20 µM) ?
0.86

----------
- Test system: Escherichia coli IAI1
- protocol-text: fold change of Cadaverine concentration vs plate DMSO controls (fold change (ratio)); higher = more amine produced, active = hit call of the paper (significant change in both replicates, either direction);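 for the amine columns active = adjusted P below 0.05 in both replicates with a change the same way and a mean fold change under 0.8 or over 1.25; inactive = the rest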
- test-parameters: incubation time: 27 h, anaerobic, 37 °C
Counter-ions that a name gives are not always drawn.
Parameter call: string, one of active, inactive

Some solved entries appear below for comparison.
O=C(O)c1ccccc1OP(=O)(O)O [Fosfosal] (20 µM)
inactive
Cn1c(=O)c2c(ncn2CC(=O)O)n(C)c1=O [Acefylline] (20 µM)
inactive
Cc1ccc(N(CC2=NCCN2)c2cccc(O)c2)cc1 [Phentolamine hydrochloride] (20 µM)
active
COc1ccc(CC2c3cc(OC)c(OC)cc3CC[N+]2(C)CCC(=O)OCCCCCOC(=O)CC[N+]2(C)CCc3cc(OC)c(OC)cc3C2Cc2ccc(OC)c(OC)c2)cc1OC (stereo not given) [Atracurium besylate] (20 µM)
inactive
CC1(C)S[C@@H]2[C@H](NC(=O)C3(N)CCCCC3)C(=O)N2[C@H]1C(=O)O [Cyclacillin] (20 µM)
active
COc1ccc(NS(=O)(=O)c2ccc(N)cc2)nn1 [Sulfamethoxypyridazine] (20 µM)
inactive

Please indicate how the test categorized COc1ccc(C(=O)NCc2ccc(OCCN(C)C)cc2)cc1OC [Itopride] (20 µM) .
inactive

Test call for this compound, please: CN1CC(=O)N2[C@H](c3ccc4c(c3)OCO4)c3[nH]c4ccccc4c3C[C@@H]2C1=O [Tadalafil] (20 µM)
inactive

Look up the recorded call for CC(C)c1cc2c(cc1S(=O)(=O)O)[C@@]1(C)CCC[C@@](C)(C(=O)O)[C@@H]1CC2 [Ecabet sodium] (20 µM) in this test.
inactive

What call does the record list for Cc1cc(CC(=O)O)n(C)c1C(=O)c1ccc(Cl)cc1 [Zomepirac sodium salt] (20 µM) ?
inactive

Dear colleague, could you share the recorded outcome for COc1cc(C(=O)OCCCN2CCCN(CCCOC(=O)c3cc(OC)c(OC)c(OC)c3)CC2)cc(OC)c1OC [Dilazep dihydrochloride] (20 µM) when you have a moment?
inactive

Could you please tell me the result logged for CC(C)NCC(O)c1ccc(O)c(O)c1 (single isomer, unassigned; (-)) [(-) Isoproterenol hydrochloride] (20 µM) in this assay?
inactive

Which outcome was entered for the compound CC[C@]12CCCN3CCc4c(n(c5ccccc45)[C@@](O)(C(=O)OC)C1)[C@@H]32 [Vincamine] (20 µM) in this test?
inactive

Called result for COc1cccc(OC)c1C(=O)N[C@@H]1C(=O)N2[C@@H]1SC(C)(C)[C@@H]2C(=O)O [Methicillin sodium] (20 µM)
inactive

Just curious, what result did O=C(O)CNC(=O)c1ccccc1 [Hippuric acid] (20 µM) get here?
inactive

----------
The reader will find reported fold change of Cadaverine concentration values listed item by item below.
- System: Klebsiella aerogenes DSM 30053
- protocol-text: fold change of Cadaverine concentration vs plate DMSO controls (fold change (ratio)); higher = more amine produced, active = hit call of the paper (significant change in both replicates, either direction)
- test-parameters: incubation time: 27 h, anaerobic, 37 °C
Counter-ions that a name gives are not always drawn.
I'd appreciate a reply containing only the number, no unit.

Some compounds with recorded fold change of Cadaverine concentration:
CCN(CC)CCOC(=O)C1(C2CCCCC2)CCCCC1 [Dicyclomine hydrochloride] (20 µM)
1
CC(CNC1CCCCC1)OC(=O)c1ccccc1 (stereo unspecified) [Hexylcaine hydrochloride] (20 µM)
0.984
Nc1ccc(S(=O)(=O)Nc2ccnn2-c2ccccc2)cc1 [Sulfaphenazole] (20 µM)
1.02
Cc1c(Nc2ncccc2C(=O)O)cccc1C(F)(F)F [Flunixin meglumine] (20 µM)
1
CN(C(=O)CN(CCO)CC(=O)N(C)C(C)(C)Cc1ccccc1)C(C)(C)Cc1ccccc1 [Oxethazaine] (20 µM)
0.988

Lab note: need fold change of Cadaverine concentration with Klebsiella aerogenes DSM 30053 for entry Nc1ccc(C(=O)O)c(O)c1 [Aminosalicylic acid] (20 µM) , please look it up.
0.98

----------
- System: Clostridium sporogenes DSM 1664
- protocol-text: growth (OD595) fold change vs plate DMSO controls (fold change (ratio)); higher = more growth
- test-parameters: incubation time: 27 h, anaerobic, 37 °C
Where a name gives a salt, the structure may show the parent alone.
quantity-kind: growth
Please respond with just the number, no unit label.

Known growth results, listed for orientation:
CCOC(=O)[C@@](C)(N)Cc1ccc(O)c(O)c1 [Methyldopate hydrochloride] (20 µM)
0.926
O=C(NCC(O)CO)c1c(I)c(C(=O)NCC(O)CO)c(I)c(N(CCO)C(=O)CO)c1I (stereo not given) [Ioversol] (20 µM)
1.09
CC(=O)Oc1ccccc1C(=O)O [Acetylsalicylic acid] (20 µM)
1.11
C=C1[C@H](CO)[C@@H](O)C[C@@H]1n1cnc2c(=O)[nH]c(N)nc21 [Entecavir] (20 µM)
0.907

// switching to the query molecule
Can you look up the measured growth of O=c1[nH]cc(F)c(=O)[nH]1 [5-fluorouracil] (20 µM) for me?
1.2

----------
- Tested on: Ruminococcus gnavus DSM 108212
- protocol-text: fold change of 2-Phenylethylamine concentration vs plate DMSO controls (fold change (ratio)); higher = more amine produced, active = hit call of the paper (significant change in both replicates, either direction);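 for the amine columns active = adjusted P below 0.05 in both replicates with a change the same way and a mean fold change under 0.8 or over 1.25; inactive = the rest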
- test-parameters: incubation time: 27 h, anaerobic, 37 °C
Counter-ions that a name gives are not always drawn.
Answer with one of the outcomes active, inactive

O=C1CN(/N=C/c2ccc(-c3ccc([N+](=O)[O-])cc3)o2)C(=O)N1 [Dantrolene sodium salt] (20 µM)
inactive
CCCSS/C(CCO)=C(/C)N(C=O)Cc1cnc(C)nc1N [Prosultiamine] (20 µM)
inactive
CC(CCc1ccc(O)cc1)NCCc1ccc(O)c(O)c1 (stereo not given) [Dobutamine hydrochloride] (20 µM)
inactive
Cc1cnc(NC(=O)C2=C(O)c3ccccc3S(=O)(=O)N2C)s1 [Meloxicam] (20 µM)
inactive
O=C1C(=O)c2ccccc2C(O)=C1C1CCC(c2ccc(Cl)cc2)CC1 (stereo not given) [Atovaquone] (20 µM)
active
Cc1ccc(-c2cc(C(F)(F)F)nn2-c2ccc(S(N)(=O)=O)cc2)cc1 [Celecoxib] (20 µM)
inactive

Field: outcome | Entry: CCCCc1ccc2[nH]c(NC(=O)OC)nc2c1 [Parbendazole] (20 µM)
inactive

// return assay outcome for Clc1ccc(C(Cn2ccnc2)OCc2c(Cl)cccc2Cl)c(Cl)c1 (stereo not given) [Isoconazole] (20 µM)
active

Per the assay record, what outcome was assigned to COc1ccc2c(c1)c(CC(=O)OC/C=C(\C)CC/C=C(\C)CCC=C(C)C)c(C)n2C(=O)c1ccc(Cl)cc1 [Indometacin farnesil] (20 µM) ?
inactive

Could you kindly confirm the outcome this assay logged for Nc1nc2[nH]cc(CCc3ccc(C(=O)N[C@@H](CCC(=O)O)C(=O)O)cc3)c2c(=O)[nH]1 [Pemetrexed disodium] (20 µM) ?
inactive

----------
Listed here: items and their measured growth.
- System: Ruminococcus gnavus DSM 108212
- protocol-text: growth (OD595) fold change vs plate DMSO controls (fold change (ratio)); higher = more growth
- test-parameters: incubation time: 27 h, anaerobic, 37 °C
Where a name gives a salt, the structure may show the parent alone.
I only need the number, thanks.

Solved cases below.
CN1C(=O)CC(c2ccccc2)C1=O (stereo not drawn) [Phensuximide] (20 µM)
1.05
Cc1[nH]cnc1CN1CCc2c(c3ccccc3n2C)C1=O [Alosetron hydrochloride] (20 µM)
1.13

Look up growth for this compound: CN(C)CCOc1ccc(/C(=C(/CCCl)c2ccccc2)c2ccccc2)cc1 [Toremifene] (20 µM)
0.943

Please look up its growth: CCCCOCCOCCOCc1cc2c(cc1CCC)OCO2 (20 µM)
1.09

Given O=C1C(CC[S+]([O-])c2ccccc2)C(=O)N(c2ccccc2)N1c1ccccc1 (stereo not drawn) [Sulfinpyrazone] (20 µM) , state its recorded growth.
1.06

Consider the compound CC(C)NC[C@@H](O)COc1ccc(CC(N)=O)cc1 [(R,+) Atenolol] (20 µM) and give its measured growth.
1.16

Could you tell me which growth is on file for CO[C@@]1(NC(=O)C2SC(=C(C(N)=O)C(=O)O)S2)C(=O)N2C(C(=O)O)=C(CSc3nnnn3C)CS[C@@H]21 (stereo partly drawn) [Cefotetan] (20 µM) ?
1.17

Entry CC(=O)SCC(Cc1ccccc1)C(=O)NCC(=O)OCc1ccccc1 (stereo not drawn) [Racecadotril] (20 µM) has what growth?
0.929

I am curious: what growth value has been reported for O=S(=O)(O)CCS [Coenzyme M] (20 µM) ?
1.01

For the compound O=C(O)c1cc(-c2ccc(F)cc2F)ccc1O [Diflunisal] (20 µM) , what growth is on record?
1.22

Sample O=C(NCCN1CCOCC1)c1ccc(Cl)cc1 [Moclobemide] (20 µM) — what was its growth?
1.21

Looking for the measured growth of CCN1C(=O)NC(c2ccccc2)C1=O (stereo not drawn) [Ethotoin] (20 µM) , can you help?
1.14

Field request: growth | item: OCc1cc(C(O)CNCCCCCCOCCCCc2ccccc2)ccc1O (stereo not drawn) [Salmeterol] (20 µM)
0.975

# lookup: growth of CCCCOc1ccc(C(=O)CCN2CCCCC2)cc1 [Dyclonine hydrochloride] (20 µM)
1.22

What value of measured growth is listed for Nc1ccc(S(N)(=O)=O)cc1 [Sulfanilamide] (20 µM) ?
1.15
